meta.source: patent US4518712A

- System: dd strain male mice
- procedure_text: Acute toxicity test
- Format: in vivo
- recorded_conditions: 500 mg/kg oral, 72 hours
Structures can show the parent of a compound that is named as a salt.
Acute toxicity, (number of dead animals)/(number of test animals): recorded values
experimental_readout: Acute toxicity, (number of dead animals)/(number of test animals)

molecule	endpoint_value
CC(C)N1CCN(c2cccc(C(F)(F)F)c2)CC1 [Compound 12, dihydrochloride]	6/6
FC(F)(F)c1cccc(N2CCN(CC3CC3)CC2)c1 [Compound 7]	2/6
FC(F)(F)c1cc(N2CCN(CC3CC3)CC2)ccc1Cl	5/6
Cl.Cl.FC(F)(F)c1cccc(N2CCN(CC3CC3)CC2)c1	4/6
Cl.Cl.Fc1ccc(N2CCN(CC3CC3)CC2)cc1	5/6
FC(F)(F)c1cccc(N2CCN(CC3CC3)CC2)c1 [Compound 9]	3/6
Fc1ccccc1N1CCN(CC2CC2)CC1	3/6
C=CCN1CCN(c2cccc(C(F)(F)F)c2)CC1.Cl.Cl	4/6
Clc1ccc(N2CCN(CC3CC3)CC2)cc1	5/6
FC(F)(F)c1cccc(N2CCN(CC3CC3)CC2)c1.O=C(O)CC(O)(CC(=O)O)C(=O)O	2/6
Clc1cccc(N2CCN(CC3CC3)CC2)c1	2/6
Clc1ccc(N2CCN(CC3CC3)CC2)cc1Cl	2/6

----------
- System: dd strain male mice
- procedure_text: Acute toxicity test
- Type: in vivo
- recorded_conditions: 250 mg/kg oral, 72 hours
Counter-ions that a name gives are not always drawn.
experimental_readout: Acute toxicity, (number of dead animals)/(number of test animals)

molecule	endpoint_value
Clc1cccc(N2CCN(CC3CC3)CC2)c1	0/6
FC(F)(F)c1cc(N2CCN(CC3CC3)CC2)ccc1Cl	0/6
C=CCN1CCN(c2cccc(C(F)(F)F)c2)CC1.Cl.Cl	0/6
Clc1ccc(N2CCN(CC3CC3)CC2)cc1	0/6
Cl.Cl.FC(F)(F)c1cccc(N2CCN(CC3CC3)CC2)c1	0/6
CC(C)N1CCN(c2cccc(C(F)(F)F)c2)CC1 [Compound 12, dihydrochloride]	0/6
FC(F)(F)c1cccc(N2CCN(CC3CC3)CC2)c1.O=C(O)CC(O)(CC(=O)O)C(=O)O	0/6
Clc1ccc(N2CCN(CC3CC3)CC2)cc1Cl	0/6
Cl.Cl.Fc1ccc(N2CCN(CC3CC3)CC2)cc1	1/6
Fc1ccccc1N1CCN(CC2CC2)CC1	2/6
FC(F)(F)c1cccc(N2CCN(CC3CC3)CC2)c1 [Compound 7]	0/6
FC(F)(F)c1cccc(N2CCN(CC3CC3)CC2)c1 [Compound 9]	0/6

----------
- procedure_text: Acute toxicity test
- Type: in vivo, mice
- recorded_conditions: mouse, in vivo; oral, 72 hours of observation; dd strain male mice; 95% confidence limits in parentheses on the next line
experimental_readout: LD50 at 72 h (mg/kg)

compound	unit_tag	endpoint_value
Cc1c(N(C)C)c(=O)n(-c2ccccc2)n1C [Aminopyrin, aminopyrin, reference compound]	mg/kg	750
